# Tested on: Clostridioides difficile
# Assay Details: Antimicrobial activity against Clostridium difficile after 48 hrs by agar dilution method
# Assay type: functional
Observation Type: MIC90 (µg/mL)
Report as a plain number; the unit µg/mL is understood.

Query: Annotate the compound `Cc1ncc([N+](=O)[O-])n1CCO` with its measured MIC90.
Response: 1

Query: Annotate the compound `CCN1CCN(C(=O)N[C@@H](C(=O)N[C@@H]2C(=O)N3[C@@H]2SC(C)(C)[C@@H]3C(=O)O)c2ccccc2)C(=O)C1=O` with its measured MIC90.
Response: 8

***
Query: Annotate the compound `C[C@@H](O)[C@H]1C(=O)N2C(C(=O)O)=C(S[C@@H]3CN[C@H](C(=O)N(C)C)C3)[C@H](C)[C@H]12` with its measured MIC90.
Response: 2

Query: Annotate the compound `O=C(N[C@H](CO)[C@H](O)c1ccc([N+](=O)[O-])cc1)C(Cl)Cl` with its measured MIC90.
Response: 16

Query: Annotate the compound C[C@@H](O)[C@H]1C(=O)N2C(C(=O)O)=C(SCCNC=N)C[C@H]12 [IMIPENEM ANHYDROUS] with its measured MIC90.
Response: 8

Query: Annotate the compound `CCC[C@@H]1C[C@@H](C(=O)N[C@@H]([C@H]2O[C@H](SC)[C@H](O)[C@@H](O)[C@H]2O)[C@H](C)Cl)N(C)C1` with its measured MIC90.
Response: 128

Query: Annotate the compound `CN[C@H](CC(C)C)C(=O)N[C@H]1C(=O)N[C@@H](CC(N)=O)C(=O)N[C@H]2C(=O)N[C@H]3C(=O)N[C@H](C(=O)N[C@H](C(=O)O)c4cc(O)cc(O)c4-c4cc3ccc4O)[C@H](O)c3ccc(c(Cl)c3)Oc3cc2cc(c3O[C@@H]2O[C@H](CO)[C@@H](O)[C@H](O)[C@H]2O[C@H]2C[C@](C)(N)[C@H](O)[C@H](C)O2)Oc2ccc(cc2Cl)[C@H]1O` with its measured MIC90.
Response: 2

Query: Annotate the compound CO[C@@]1(NC(=O)C2SC(=C(C(N)=O)C(=O)O)S2)C(=O)N2C(C(=O)O)=C(CSc3nnnn3C)CS[C@@H]21 (some centres undefined) with its measured MIC90.
Response: 128
